ASSAY_SUMMARY: label from the status in PepcDB records
OBSERVATION_TYPE: protein production

ITEM_SEQUENCE: MQADPAIRRFAKKRNKRVDRMILDSNYMHTSIDRYFPNESKRRGRPDIIYLLLEMTQESILNHKNQLRTYVHTRNNQVIRISPITRMPKSYNRFIGLFEDLFEKRIITNNGKELLSMEESSLGDLINSIRRDRTILLHPKGEMRKPSEFISNANILIVIGGFSEGDFISDTSFINERYAIFDQELTIWSVANEMVANYERAVGLTLEHHHHHH
protein production: not failed
//
ITEM_SEQUENCE: MATAGSSYSVSTDHQVSSPLVNLGNVAGVCIMSNAWKVEQEPSLINFISAFLSANSFRLNFVSIPPDLIFNCGGVSIAFVFVTKWDFSNVASIFSRVKRLKGQFAQLYVVATLSTKEQSDSFMRSYFQYEMEFGKPAFVQVTDAEMGFEKIVKIAHSRGVCKQQKVASKLKVERKRTVQDTNIFIRFVTSIPNINKHDANTVMFTYEQVQVLYQAIGSIEAIAKASKEDILANTDLSSKKADTLTRFFQDPEFYLSPKFN
protein production: failed
//
ITEM_SEQUENCE: MSSTILVLGATGTVGRHVVDGLLAKGEAVKAASRAGKPVAAAEGVAFDYARPETFGPALEGVDRAYVLLASGYVDSKGLLLPVIEAAATRKVKVVLQSVIGVDADDSIPYRQVEIALEKSDTPYVILRPNWFSDNFHTFWKPGIDHGQIALPAAEGKSSFIDARDIAASGVAVLTSSSFDGKAFNLTGPEALSYAEAAAILSEAIGKPVTYNAVSDEAFIEMLTGAGVPAGYASFLASIFYPVRQNWTAVMTGDVETLTGKAPRSLKTYAADYAAALKA
protein production: failed
//
ITEM_SEQUENCE: MTFSKELREASRPIIDDIYNDGFIQDLLAGKLSNQAVRQYLRADASYLKEFTNIYAMLIPKMSSMEDVKFLVEQIEFMLEGEVEAHEVLADFINEPYEEIVKEKVWPPSGDHYIKHMYFNAFARENAAFTIAAMAPCPYVYAVIGKRAMEDPKLNKESVTSKWFQFYSTEMDELVDVFDQLMDRLTKHCSETEKKEIKENFLQSTIHERHFFNMAYINEKWEYGGNNNE
protein production: not failed
//
ITEM_SEQUENCE: MRETSNPVFRSLPKQRGGYAQFGTGTAQQGFPADPYLAPYREAKATRPLTIDDVVTKTGLTLAMLAGTAVVSYFLVASNVALAMPLTLVGALGGLALVLVATFGRKQDNPAIVLSYAALEGLFLGAISFVLANFTVASANAGVLIGEAILGTMGVFFGMLVVYKTGAIRVTPKFTRMVVAALFGVLVLMLGNLVLAMFNVGGGEGLGLRSPGPLGIIFSLVCIGIAAFSFLIDFDAADQMIRAGAPEKAAWGVALGLTVTLVWLYIEILRLLSYLQNE
protein production: failed

In the following, a different sequence is considered.
Look at this sequence and give its reported protein production. DDPEQFEVIKQQKEIIEHGIELFNKKPKRGIQFLQEQGMLGTSVEDIAQFLHQEERLDSTQVGDFLGDSARFNKEVMYAYVDQLDFCEKEFVSALRTFLEGFRLPGEAQKIDRLMEKFAARYIECNQGQTLFASADTAYVLAYSIIMLTTDLHSPQVKNKMTKEQYIKMNRGINDSKD
failed
